Values were extracted from patent US11001824.

# MEASUREMENT_TARGET: T1, denatured bovine pancreatic Ribonuclease B (bovine, UniProt P61823 27-150)
# T1 construct: mature; also called dRNase B; denatured RNase B
# T1 sequence: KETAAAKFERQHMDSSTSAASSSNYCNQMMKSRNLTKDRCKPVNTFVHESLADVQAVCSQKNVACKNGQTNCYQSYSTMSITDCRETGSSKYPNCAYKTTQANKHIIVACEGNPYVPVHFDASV
# ASSAY_INFO: SPR (Biacore 3000), dRNase B immobilised on CM5
QUANTITY: koff

>>> meas_value("PNGase F D60A single point mutant (enzyme, also called D60A control clone) GIPAPADNTVNIKTFDKVKNAFGDGLSQSAEGTFTFPADVTAVKTIKMFIKNECPNKTCDEWARYANVYVKNKTTGEWYEIGRFITPYWVGTEKLPRGLEIDVTDFKSLLSGNTELKIYTETWLAKGREYSVDFDIVYGTPDYKYSAVVPVVQYNKSSIDGVPYGKAHTLALKKNIQLPTNTEKAYLRTTISGWGHAKPYDAGSRGCAEWCFRTHTIAINNSNTFQHQLGALGCSANPINNQSPGNWTPDRAGWCPGMAVPTRIDVLNNSLIGSTFSYEYKFQNWTNNGTNGDAFYAISSFVIAKSNTPISAPVVTNLDPHHHHHH")
"0.43 s⁻¹"
>>> meas_value("PNGase F clone R911 (D57L, D60C, I156L, G192I, E206S, R248W) (designed binder) GIPAPADNTVNIKTFDKVKNAFGDGLSQSAEGTFTFPADVTAVKTIKMFIKNECPNKTCLEWCRYANVYVKNKTTGEWYEIGRFITPYWVGTEKLPRGLEIDVTDFKSLLSGNTELKIYTETWLAKGREYSVDFDIVYGTPDYKYSAVVPVVQYNKSSLDGVPYGKAHTLALKKNIQLPTNTEKAYLRTTISGWIHAKPYDAGSRGCASWCFRTHTIAINNSNTFQHQLGALGCSANPINNQSPGNWTPDWAGWCPGMAVPTRIDVLNNSLIGSTFSYEYKFQNWTNNGTNGDAFYAISSFVIAKSNTPISAPVVTNLDPHHHHHH")
"0.0051 s⁻¹"
>>> meas_value("PNGase F clone R911 C60A (D57L, D60A, I156L, G192I, E206S, R248W) (designed binder) GIPAPADNTVNIKTFDKVKNAFGDGLSQSAEGTFTFPADVTAVKTIKMFIKNECPNKTCLEWARYANVYVKNKTTGEWYEIGRFITPYWVGTEKLPRGLEIDVTDFKSLLSGNTELKIYTETWLAKGREYSVDFDIVYGTPDYKYSAVVPVVQYNKSSLDGVPYGKAHTLALKKNIQLPTNTEKAYLRTTISGWIHAKPYDAGSRGCASWCFRTHTIAINNSNTFQHQLGALGCSANPINNQSPGNWTPDWAGWCPGMAVPTRIDVLNNSLIGSTFSYEYKFQNWTNNGTNGDAFYAISSFVIAKSNTPISAPVVTNLDPHHHHHH")
"0.012 s⁻¹"
